Each recorded value in this set is attributed to PubChem BioAssay (NCI).

# Tested on: SF-268 CNS
# protocolDescription: NCI tumour cell line growth inhibition, 48 h
The reader will find reported TGI values listed item by item below.
quantity: TGI

CN(C)NC1=C([N+](=O)[O-])C=NN(c2ccccc2)C1 ... 3.51 µM
O=c1nc2sc3ccccc3c(=O)n2[nH]1 ... > 100 µM
O=C1C=C(c2ccccc2)OC1C1Sc2ccccc2NC1=O (stereo not drawn) ... > 100 µM
Cc1ccc2[nH]c3c(c(=O)n(C)c(=O)n3C)c2c1 ... > 100 µM
O=Cc1ccc2ccocc1-2 ... > 100 µM
ICC1CCCO1 (stereo not drawn) ... > 100 µM
NS(=O)(=O)c1nnc(NS(=O)(=O)c2ccccc2[N+](=O)[O-])s1 ... > 100 µM
CCCC(=O)OCC1OC(n2cc(F)c(=O)[nH]c2=O)CC1O (stereo not drawn) ... > 10 µM
NS(=O)(=O)c1ccc(N=Nc2ccc[nH]c2=O)cc1 ... > 100 µM
O=C1Nc2ccc(Br)cc2/C1=N/S(=O)(=O)O ... > 100 µM
Cc1ccc(C[As+](c2ccccc2)(c2ccccc2)c2ccccc2)cc1 ... > 42.2 µM
C[C@@H](Nc1cc(F)cc(F)c1)c1cc(C(=O)N(C)C)cc2c(=O)cc(N3CCOCC3)oc12 ... > 100 µM
CCOP(=O)(C/C=C/Cn1ncc(=O)[nH]c1=O)OCC ... > 100 µM
N#C/C(=C\c1c(O)cc(O)cc1O)C(N)=O ... > 100 µM
CCOC(=O)c1cc(=O)n(C)c(=O)n1C ... > 100 µM
O=S(=O)(NC1=NCCN1C(=S)SN1CCn2c1nsc2=S)c1ccc(Oc2ccccc2)cc1 ... > 100 µM
COc1ccc(Oc2nc3cc(N)cc(N)c3nc2-c2ccccc2)cc1 ... > 100 µM
CC(=O)Nc1cc(Cl)cc(Cl)c1O ... > 100 µM
COc1cc(S(=O)(=O)Nc2ccc(-c3csc(N4C(=O)C(C)SC4c4cccs4)n3)cc2)ccc1Cl (stereo not drawn) ... > 100 µM
CN(C)c1ccc(/C=C(\C#N)c2cc3ccccc3[nH]2)cc1 ... > 100 µM
COc1ccc2c(c1)C(=Nc1ccc(F)c(Cl)c1)c1c-2c(Nc2ccc(F)c(Cl)c2)nc2ccccc12 ... > 100 µM
O=c1[nH]c(=O)c2c([nH]1)[nH]c1ccc(Br)cc12 ... > 100 µM
CC[C@@H](C)/C=C(C)/C=C/C(=O)c1c(O)c(-c2ccc(OC(=O)[C@@]34CC[C@@](C)(C(=O)O3)C4(C)C)cc2)cn(O)c1=O ... 6.6 µM
